study.system: hErbB3.mmh (soluble monomeric human ErbB3 extracellular domain with C-terminal myc-myc-hexahistidine tag) (human, UniProt P21860 20-642)
Sequence (P21860 other isoform, or with tags, fused parts or gaps): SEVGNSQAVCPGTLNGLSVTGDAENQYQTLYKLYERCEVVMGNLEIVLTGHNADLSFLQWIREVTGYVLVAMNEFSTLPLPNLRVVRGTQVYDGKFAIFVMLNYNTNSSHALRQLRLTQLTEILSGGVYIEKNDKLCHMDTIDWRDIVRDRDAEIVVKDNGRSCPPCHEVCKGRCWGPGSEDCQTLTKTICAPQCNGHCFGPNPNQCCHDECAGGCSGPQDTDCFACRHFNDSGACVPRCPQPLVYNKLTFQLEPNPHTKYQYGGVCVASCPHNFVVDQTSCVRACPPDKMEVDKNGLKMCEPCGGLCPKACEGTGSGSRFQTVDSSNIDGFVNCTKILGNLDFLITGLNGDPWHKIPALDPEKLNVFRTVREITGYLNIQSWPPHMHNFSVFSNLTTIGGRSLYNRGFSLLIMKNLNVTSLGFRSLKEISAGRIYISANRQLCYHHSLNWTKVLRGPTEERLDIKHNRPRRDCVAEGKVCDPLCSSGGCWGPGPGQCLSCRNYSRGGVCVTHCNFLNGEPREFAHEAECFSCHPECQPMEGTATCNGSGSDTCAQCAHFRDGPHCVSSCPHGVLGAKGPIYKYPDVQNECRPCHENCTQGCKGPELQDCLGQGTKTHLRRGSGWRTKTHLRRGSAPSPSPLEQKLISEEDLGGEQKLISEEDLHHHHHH
assay.text: SPR (Biacore), 25 C, mAb capture format
measured.endpoint: T½ (h)
The response must be a number in h with no trailing unit.

What value of T½ has been recorded for this entry: H4H2092P (antibody, V domains shown, Fully human, human IgG4 Fc (H4H prefix)) VH: EVQLVESGGGVVRPGGSLRLSCAASGFTFEDYGMNWVRQVPGKGLEWVSGTNWNGGITGYTGSVKGRFTISRDNAKNSLYLQMNSLRAEDTALYHCARDSGDQDAFDIWGQGTMVTVSS VL: DIQLTQSPSFLSASVGDRVTITCWASQDISSYLAWYQQKPGKAPKLLIYAASTFQSGVPSRFSGSGSGTEFTLTISNLQPEDFATYYCQQLDSYPLSFGGGTKVEIKR
1.72

What value of T½ has been recorded for this entry: H4H2154P (antibody, V domains shown, Fully human, human IgG4 Fc (H4H prefix)) VH: QVQLQESGPGLINPSQTLSVTCTVSGGSISSGGYYWTWIRQHPGKGLEWIGYISYSGNTNYNPSLKSRVTISVDTAKNQFSLKLSSVTAADTAVYFCARDSDVDTAMVDGIDIWGQGTMVTVSS VL: DIQMTQSPSSVSASVGDRVTITCRASQDISSWLAWYQQKPGRAPKLLIYTASSLQSGVPSRFSGSGSGTDFTLTISSLQPEDFATYFCQQANSFPFTFGPGTKVDIKR
4.75

What value of T½ has been recorded for this entry: H2M1930N (antibody, V domains shown, Hybridoma chimeric antibody: human variable domains, mouse IgG2 Fc (H2M prefix)) VH: EVQLVESGGGLVKPGGSLRLSCVASGFTFSSYNMNWVRQAPGKGLEWVSFISGSSNYIHYADSVKGRFTISRDNAKNALYLQMNSLRAEDTAVYYCARDDGDYDWFDPWGQGTLVTVSS VL: EIVLTQSPGTLSLSPGERATLSCRASQSVSSSYLAWYQQKPGQAPRLLIYGTSSRATGIPDRFSGSGSGTDFTLTISRLEPEDFAVYYCQQYDNSYTFGQGTKLEIK
1.77
